Measured Increase in COX-2 inhibitory efficiency by duplicating the concentration of individual entries
tgt: COX-2 (Homo sapiens)
Construct: purchased Cayman Chemical Company 701080
Sequence (P35354 18-604): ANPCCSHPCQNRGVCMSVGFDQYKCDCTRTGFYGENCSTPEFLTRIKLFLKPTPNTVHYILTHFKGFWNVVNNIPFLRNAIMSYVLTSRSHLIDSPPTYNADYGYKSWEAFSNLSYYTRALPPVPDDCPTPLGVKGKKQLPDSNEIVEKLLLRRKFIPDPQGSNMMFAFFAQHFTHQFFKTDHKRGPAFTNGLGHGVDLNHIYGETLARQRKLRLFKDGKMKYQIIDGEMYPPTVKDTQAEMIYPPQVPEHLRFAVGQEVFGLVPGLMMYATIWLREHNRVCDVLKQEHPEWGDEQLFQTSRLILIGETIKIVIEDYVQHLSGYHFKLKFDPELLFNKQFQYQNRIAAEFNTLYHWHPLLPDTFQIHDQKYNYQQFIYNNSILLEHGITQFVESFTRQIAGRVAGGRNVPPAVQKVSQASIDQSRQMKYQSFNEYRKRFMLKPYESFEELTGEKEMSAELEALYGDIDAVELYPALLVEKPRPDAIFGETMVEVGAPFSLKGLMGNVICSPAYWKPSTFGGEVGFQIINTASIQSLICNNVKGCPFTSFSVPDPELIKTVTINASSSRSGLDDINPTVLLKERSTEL
procedure-details: COX-2 inhibitory screening assay (Cayman kit)
Assay type: biochemical
condition-label: % inhibition at 0.200 mg/mL divided by % inhibition at 0.100 mg/mL
All answers are understood in fold, so give the number only.

O=c1c2cc(Cl)ccc2[nH]c(=S)n1-c1cccc(C(F)(F)F)c1 = 1.70

Q) What value of measured Increase in COX-2 inhibitory efficiency by duplicating the concentration is listed for O=c1c2cc(Cl)ccc2nc(SCc2ccccc2F)n1-c1cccc(C(F)(F)F)c1 ?
A) 1.85

Q) What value of measured Increase in COX-2 inhibitory efficiency by duplicating the concentration is listed for O=c1c2cc(Cl)ccc2[nH]c(=S)n1-c1ccc(C(F)(F)F)cc1 ?
A) 1.62

Q) What value of measured Increase in COX-2 inhibitory efficiency by duplicating the concentration is listed for O=c1c2cc(Br)ccc2nc(SCc2cccc([N+](=O)[O-])c2)n1-c1ccc([N+](=O)[O-])cc1 ?
A) 1.83

###

tgt: purified recombinant human LDHA protein (Homo sapiens, UniProt P00338)
procedure-details: Lactate dehydrogenase A (LDHA) inhibitory assay
condition-label: mean ± SD of three replicates
Measured IC50 of individual entries
All answers are understood in µM, so give the number only.

O=c1c2cc(Br)ccc2[nH]c(=S)n1-c1ccc([N+](=O)[O-])cc1 = 242

Now consider the entry below.
Q) Any idea what IC50 came out for O=c1c2cc(Cl)ccc2[nH]c(=S)n1-c1cccc(C(F)(F)F)c1 on purified recombinant human LDHA protein (Homo sapiens, UniProt P00338)?
A) 273

###

tgt: purified recombinant human LDHA protein (Homo sapiens, UniProt P00338)
procedure-details: Lactate dehydrogenase A (LDHA) inhibitory assay
Format: biochemical
condition-label: at 0.2 mg/mL; read-out: LDHA mean % inhibition ± SD
Assign a class from recorded inhibition at 200 µg/mL; defined classes: low value = under 30%, medium value = from 30% up to 40%, high value = 40% and over

O=c1c2cc(Cl)ccc2[nH]c(=S)n1-c1cccc(C(F)(F)F)c1 [Compound 3a] = high value
O=c1c2cc(Br)ccc2[nH]c(=S)n1-c1ccc([N+](=O)[O-])cc1 [Compound 3g] = high value

Q) // return the class label for O=c1c2cc(Br)ccc2nc(SCc2cccc([N+](=O)[O-])c2)n1-c1ccc([N+](=O)[O-])cc1 [Compound 5g]
A) low value

Q) // return the class label for O=c1c2cc(Cl)ccc2[nH]c(=S)n1-c1ccc([N+](=O)[O-])cc1 [Compound 3f]
A) medium value

Q) // return the class label for COc1ccc(Br)c(CSc2nc3ccc(Br)cc3c(=O)n2-c2ccc(C(F)(F)F)cc2)c1 [Compound 5e]
A) low value

Q) // return the class label for COc1cc2[nH]c(=S)n(-c3ccc([N+](=O)[O-])cc3)c(=O)c2cc1OC [Compound 3h]
A) high value

Q) // return the class label for O=c1c2cc(Br)ccc2[nH]c(=S)n1-c1cccc(C(F)(F)F)c1 [Compound 3b]
A) high value

Q) // return the class label for O=c1c2cc(Br)ccc2nc(SCc2ccc(Cl)cc2)n1-c1cccc(C(F)(F)F)c1 [Compound 5b]
A) low value
